# STUDY TARGET: MGL (Rattus norvegicus, UniProt Q8R431)
# Construct: one g rat brain was homogenized using a Polytron homogenizer; from tissue; host or cells: rat brain homogenate
# Sequence (Q8R431 1-303): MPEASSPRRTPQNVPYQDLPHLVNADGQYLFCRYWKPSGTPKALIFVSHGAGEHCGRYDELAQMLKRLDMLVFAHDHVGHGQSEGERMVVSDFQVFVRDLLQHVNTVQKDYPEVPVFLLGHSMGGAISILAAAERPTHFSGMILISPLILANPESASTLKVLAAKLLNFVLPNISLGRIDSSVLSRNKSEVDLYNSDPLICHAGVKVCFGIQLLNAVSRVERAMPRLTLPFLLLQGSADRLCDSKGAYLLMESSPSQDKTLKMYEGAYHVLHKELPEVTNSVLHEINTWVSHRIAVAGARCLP
# ASSAY PROTOCOL: 2-AG accumulation assay in rat brain homogenate
# Type: biochemical
# MEASUREMENT CONDITIONS: rat brain homogenate; compound 1 μM; 2-AG accumulation as percent of vehicle; read-out: Rat Brain 2AG % VehCntrl (%) @ 1 μM
Please respond with reported 2-AG accumulation, % of vehicle control at 1 µM for every item in the list.
Answers are plain numbers, in %.

Sample answers from the record:
{"columns": ["COMPOUND", "VALUE UNIT", "NUMERIC RESULT"],
 "data": [
  ["O=C(c1ccc2c(c1)CCN(c1ncccn1)C2)N1CC(N2CCN(C(=O)c3nccs3)CC2)C1 [Cpd 668]", "%", 679],
  ["O=C(c1ccc(Cc2ccc(C(F)(F)F)cc2)cc1)N1CC(N2CCN(C(=O)c3cscn3)CC2)C1 [Cpd 999]", "%", 458]
]}

Batch lookup, 2-AG accumulation, % of vehicle control at 1 µM per entry.
1. O=C(c1ccc2c(ccn2-c2ccc(Cl)cn2)c1)N1CC(N2CCN(C(=O)c3nccs3)CC2)C1 [Cpd 1313]
2. O=C(c1cc(-c2cccc(F)c2)cs1)N1CC(N2CCN(C(=O)c3nccs3)CC2)C1 [Cpd 1160]
3. O=C(c1ccc(C2CCCCC2)cc1)N1CC(N2CCN(C(=O)c3nccs3)CC2)C1 [Cpd 889]
4. O=C(c1cscn1)N1CCN(C2CN(C(=O)c3sc4cc(Cl)ccc4c3C(F)(F)F)C2)CC1 [Cpd 699]
5. O=C(c1cc2cc(-c3ccccc3)ccc2o1)N1CC(N2CCN(C(=O)c3nccs3)CC2)C1 [Cpd 1342]
6. Cc1c(C(=O)N2CC(N3CCN(C(=O)c4nccs4)CC3)C2)[nH]c2ccc(Br)cc12 [Cpd 682]
7. O=C(c1ccc2c(c1)CCN(C(=O)c1cccs1)C2)N1CC(N2CCN(C(=O)c3nccs3)CC2)C1 [Cpd 665]
8. O=C(c1ccc2c(c1)CCN2Cc1cccc(C(F)(F)F)c1)N1CC(N2CCN(C(=O)c3nccs3)CC2)C1 [Cpd 881]

Output:
[851, 260, 683, 253, 346, 390, 507, 847]

Batch lookup, 2-AG accumulation, % of vehicle control at 1 µM per entry.
1. O=C(c1ccccc1)N1CCN(C2CN(C(=O)c3ccc4c(ccn4-c4cccc(C(F)(F)F)c4)c3)C2)CC1 [Cpd 129]
2. O=C(c1ccccc1)N1CCN(C2CN(C(=O)c3sc4cc(Br)ccc4c3Cl)C2)CC1 [Cpd 331]
3. O=C(c1ccc(-c2cccc(C(F)(F)F)c2)cc1)N1CC(N2CCN(C(=O)c3ccc[nH]3)CC2)C1 [Cpd 1325]
4. Cc1cn(-c2ccc(F)cc2)c2ccc(C(=O)N3CCN(C4CN(C(=O)c5nccs5)C4)CC3)cc12 [Cpd 1089]

Output:
1. 499
2. 310
3. 575
4. 545

Input: Reported 2-AG accumulation, % of vehicle control at 1 µM for MGL (Rattus norvegicus, UniProt Q8R431), given O=C(c1ccccc1)N1CCN(C2CN(C(=O)c3ccc(S(=O)(=O)c4cccc(Cl)c4)cc3)C2)CC1 [Cpd 433] ?
Output: 159
